biological target: tcFGE_(W228F), inactive variant of formylglycine generating enzyme from Thermomonospora curvata (Thermomonospora curvata) (UniProt D1A7C3); assay: ITC
Where no end group is shown, it is not given here. [ ]: non-standard residue; d: D form. 2Abz = Nc1ccccc1C(=O)O
experimental.readout: Kd (nM)
Numbers only; they are read as nM.

For reference, reported Kd for [2Abz]ATTPLCGPSRASILSGR [FGE-27: Abz-…] stands at 40
